These data points were gathered from ChEMBL document CHEMBL5532635.

# assay_comment: Inhibition of recombinant Leishmania mexicana Trypanothione reductase
experimental_endpoint: IC50

Kindly note the recorded IC50 for C[C@H]1[C@H](C)CC[C@]2(C(=O)O)CC[C@]3(C)C(=CC[C@@H]4[C@@]5(C)CC[C@H](O)C(C)(C)[C@@H]5CC[C@]43C)[C@H]12 [URSOLIC ACID] , which is 7.03 µM

----------
# System: Leishmania amazonensis
# assay_comment: Antileishmanial activity against Leishmania amazonensis promastigotes assessed as inhibition of parasite growth
# Type: functional, organism-based
experimental_endpoint: IC50

Kindly note the recorded IC50 for `COC(=O)C1=CCC[C@@H]2[C@@](C)(CCc3ccco3)[C@H](C(=O)O)CC[C@@]12C` , which is 0.11 µM
